FYI, the data here is from patent US20230416271A1.

Consider the following compounds and their measured IC50 readings.
system: CDK2/Cyclin A2 (Homo sapiens (Human), UniProt P24941)
experiment.notes: Kinase activity assay (Caliper Mobility Shift Assay), CDK2/Cyclin A2
readout.name: IC50 (nM)

* CC(C)n1nnc2c(C(F)F)cc3cnc(NC4CCN(S(C)(=O)=O)CC4)nc3c21 | 0.2
* CC(C)c1noc2ccc3cnc(N[C@H]4CC[C@H](NC5CCOCC5)CC4)nc3c12 | 42
* [2H]c1cc2cnc(NC3CCN(S(C)(=O)=O)CC3)nc2c2c(C(C)C)noc12 | 1
* CC(C)n1nnc2ccc3cnc(NC4CCC(=O)NC4)nc3c21 (stereo not shown) | 10

###

Catalogue of compounds with associated log10(IC50)
system: CDK4/cyclin D3 (Homo sapiens (Human))
experiment.notes: Kinase activity assay (Caliper Mobility Shift Assay), CDK4/cyclin D3
setup.conditions: 10 nM kinase, 250 uM ATP
readout.name: log10(IC50) (log10 of the value in nM)

- CC(C)n1nnc2ccc3cnc(N[C@H]4CC[C@H](NC5CCOCC5)CC4)nc3c21: 1.20
- CC(C)c1noc2c(C(F)F)cc3cnc(NC4CCN(S(C)(=O)=O)CC4)nc3c12: 0.78
- CC(C)n1nnc2ccc3cnc(NC4CCC(NS(C)(=O)=O)CC4)nc3c21 (stereo not shown): 0.90
- CC(C)n1nnc2ccc3cnc(N[C@H]4CC[C@H](N5CCN(C(=O)C6CC6)CC5)CC4)nc3c21: 1.41
- CC(C)n1nnc2ccc3cnc(N[C@H]4CC[C@H](NC5CCNCC5)CC4)nc3c21: 1.34
- CC(C)n1nnc2c(Br)cc3cnc(NC4CCN(S(C)(=O)=O)CC4)nc3c21: 0.60
- CC(C)n1nnc2c1-c1nc(NC3CCN(S(=O)(=O)C4CC4)CC3)ncc1CC2: 0.48
- CC(C)n1nnc2ccc3cnc(NC4CCN(S(=O)(=O)C5CC5)CC4)nc3c21: 0.48
- CC(C)c1noc2c1-c1nc(NC3CCN(S(C)(=O)=O)CC3)ncc1CC2: 1.00
- CC(C)n1nnc2c(CC(F)(F)F)cc3cnc(NC4CCN(S(C)(=O)=O)CC4)nc3c21: 0.00
- CC(C)n1nnc2c1-c1nc(NC3CCN(S(C)(=O)=O)CC3)ncc1CC2: 0.60
- CC(C)c1noc2ccc3cnc(N[C@H]4CC[C@H](NC5CCNCC5)CC4)nc3c12: 1.34
- CC(C)n1nnc2ccc3cnc(NC4CCNCC4)nc3c21: 1.71

###

List of log10(IC50) values.
system: CDK6/Cyclin D3 (Homo sapiens (Human), UniProt Q00534)
Sequence (Q00534 whole entry, species assumed): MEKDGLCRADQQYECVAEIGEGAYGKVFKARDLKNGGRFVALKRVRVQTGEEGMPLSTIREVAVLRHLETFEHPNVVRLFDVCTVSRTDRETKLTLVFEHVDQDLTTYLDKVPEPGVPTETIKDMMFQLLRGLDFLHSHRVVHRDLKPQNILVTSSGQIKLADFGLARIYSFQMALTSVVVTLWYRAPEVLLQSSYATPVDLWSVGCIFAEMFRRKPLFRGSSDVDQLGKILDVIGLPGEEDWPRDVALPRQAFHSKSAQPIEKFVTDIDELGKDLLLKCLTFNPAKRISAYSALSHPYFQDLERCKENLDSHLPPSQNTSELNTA
Sequence (P30281 whole entry partner, species assumed): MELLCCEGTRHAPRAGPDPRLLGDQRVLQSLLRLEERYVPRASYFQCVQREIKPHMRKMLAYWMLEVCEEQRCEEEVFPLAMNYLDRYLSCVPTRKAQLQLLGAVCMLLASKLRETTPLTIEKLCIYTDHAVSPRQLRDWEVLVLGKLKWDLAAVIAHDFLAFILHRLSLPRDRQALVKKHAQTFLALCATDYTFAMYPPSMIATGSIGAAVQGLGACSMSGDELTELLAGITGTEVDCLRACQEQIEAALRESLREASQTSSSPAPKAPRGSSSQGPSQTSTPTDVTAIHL
experiment.notes: Kinase activity assay (Caliper Mobility Shift Assay), CDK6/Cyclin D3
Type: biochemical
readout.name: log10(IC50) (log10 of the value in µM)

• CC(C)n1nnc2ccc3cnc(N[C@H]4CC[C@H](N5CCN(CC6CCCC6)CC5)CC4)nc3c21 [II.8] = -1.43
• COCCN[C@H]1CC[C@H](Nc2ncc3ccc4nnn(C(C)C)c4c3n2)CC1 [II.4] = -1.66
• CC(C)n1nnc2ccc3cnc(NC4CCN(C)CC4)nc3c21 [II.13] = -1.05
• CC(C)n1nnc2ccc3cnc(NC4CCNCC4)nc3c21 [II.12] = -1.05
• CC(C)n1nnc2c1-c1nc(NC3CCN(S(C)(=O)=O)CC3)ncc1CC2 [II.37] = -1.92
• CC(C)c1noc2c1-c1nc(NC3CCN(S(C)(=O)=O)CC3)ncc1CC2 [I.15] = -2.10
• C[C@@]1(O)CCC[C@H]1n1nnc2c(C(F)F)cc3cnc(NC4CCN(S(C)(=O)=O)CC4)nc3c21 [II.33] = -2.30
• CC(C)n1nnc2ccc3cnc(NC4CCCNC4)nc3c21 (centres unmarked) [II.34] = -1.46
• CC(C)n1nnc2c(CC(F)(F)F)cc3cnc(NC4CCN(S(C)(=O)=O)CC4)nc3c21 [II.31] = -2.70
• CC(C)n1nnc2c(C(F)F)cc3cnc(NC4CCN(S(C)(=O)=O)CC4)nc3c21 [II.27] = -2.30
• CC(C)c1noc2c(CO)cc3cnc(NC4CCN(S(C)(=O)=O)CC4)nc3c12 [I.10] = -1.15
• C[C@@]1(O)CCC[C@H]1n1nnc2ccc3cnc(NC4CCN(S(C)(=O)=O)CC4)nc3c21 [II.32] = -2.05
• CC(C)c1noc2c(F)cc3cnc(NC4CCN(S(C)(=O)=O)CC4)nc3c12 [I.6] = -1.92
• CC(C)c1noc2c(Br)cc3cnc(NC4CCN(S(C)(=O)=O)CC4)nc3c12 [I.8] = -2.52
• Cc1cc2cnc(NC3CCN(S(C)(=O)=O)CC3)nc2c2c(C(C)C)noc12 [I.12] = -1.89
• CC(C)n1nnc2ccc3cnc(NC4CCN(S(=O)(=O)CC5CC5)CC4)nc3c21 [II.17] = -1.82
• CC(C)n1nnc2cc(F)c3cnc(NC4CCN(S(C)(=O)=O)CC4)nc3c21 [II.22] = -2.40
• CC(C)n1nnc2ccc3cnc(N[C@H]4CC[C@H](NC5CCNCC5)CC4)nc3c21 [II.3] = -1.59
• CC(C)n1nnc2ccc3cnc(N[C@H]4CC[C@H](N5CCN(C(=O)C6CC6)CC5)CC4)nc3c21 [II.9] = -1.46
• CC(C)n1nnc2ccc3cnc(N[C@H]4CC[C@H](N(C)C)CC4)nc3c21 [II.6] = -1.92
• CC(C)n1nnc2ccc3cnc(NC4CCN(S(C)(=O)=O)CC4)nc3c21 [II.14] = -2.30
• CC(C)n1nnc2c(Cl)cc3cnc(NC4CCN(S(C)(=O)=O)CC4)nc3c21 [II.23] = -2.05
• CC(C)c1noc2c(Cl)cc3cnc(NC4CCN(S(C)(=O)=O)CC4)nc3c12 [I.7] = -2.52
• CC(C)n1nnc2ccc3cnc(N[C@H]4CC[C@H](N5CCN(C6CCCC6)CC5)CC4)nc3c21 [II.7] = -1.59
• CNS(=O)(=O)N1CCC(Nc2ncc3ccc4nnn(C(C)C)c4c3n2)CC1 [II.20] = -1.92
• COCCS(=O)(=O)N1CCC(Nc2ncc3ccc4nnn(C(C)C)c4c3n2)CC1 [II.18] = -2.10
• CC(C)n1nnc2ccc3cnc(N[C@H]4CC[C@H](N5CCN(C(=O)c6ccccc6)CC5)CC4)nc3c21 [II.10] = -1.34
• CC(C)n1nnc2ccc3cnc(NC4CCN(S(=O)(=O)C5CC5)CC4)nc3c21 [II.16] = -2.30

###

system: CDK4/cyclin D3 (Homo sapiens (Human), UniProt P11802)
Sequence (P11802 whole entry, species assumed, one chain of several): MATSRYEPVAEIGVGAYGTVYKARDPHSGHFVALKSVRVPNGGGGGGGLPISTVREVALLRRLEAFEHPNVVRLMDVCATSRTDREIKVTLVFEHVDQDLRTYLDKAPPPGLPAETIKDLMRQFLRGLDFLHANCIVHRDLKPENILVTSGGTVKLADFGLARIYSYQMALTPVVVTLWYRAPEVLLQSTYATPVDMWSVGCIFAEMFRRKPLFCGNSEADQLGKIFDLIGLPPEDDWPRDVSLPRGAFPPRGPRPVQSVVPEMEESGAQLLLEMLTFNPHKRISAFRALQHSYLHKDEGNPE
experiment.notes: Kinase activity assay (Caliper Mobility Shift Assay), CDK4/cyclin D3
setup.conditions: 10 nM kinase, 250 uM ATP
This listing pairs molecules with measured log10(IC50).
readout.name: log10(IC50) (log10 of the value in nM)

• C[C@@]1(O)CCC[C@H]1c1noc2c(C(F)F)cc3cnc(NC4CCN(S(C)(=O)=O)CC4)nc3c12 = 0.70
• CC(C)c1noc2ccc3cnc(NC4CCNCC4)nc3c12 = 1.67
• CC(C)c1noc2ccc3cnc(NC4CCN(S(C)(=O)=O)CC4)nc3c12 = 1.00
• CC(C)n1nnc2ccc3cnc(N[C@H]4CC[C@H](Nc5ncccn5)CC4)nc3c21 = 1.34
• CC(C)c1noc2c(Br)cc3cnc(NC4CCN(S(C)(=O)=O)CC4)nc3c12 = 0.78
• CC(C)n1nnc2c(Cl)cc3cnc(NC4CCN(S(C)(=O)=O)CC4)nc3c21 = 0.48
• Cc1cc2cnc(NC3CCN(S(C)(=O)=O)CC3)nc2c2c1nnn2C(C)C = 0.48
• CC(C)c1noc2c(Cl)cc3cnc(NC4CCN(S(C)(=O)=O)CC4)nc3c12 = 0.85
• CC(C)n1nnc2ccc3cnc(N[C@H]4CC[C@H](N5CCN(CC6CCCC6)CC5)CC4)nc3c21 = 1.63
• C[C@@]1(O)CCC[C@H]1n1nnc2c(C(F)F)cc3cnc(NC4CCN(S(C)(=O)=O)CC4)nc3c21 = 0.48
• CC(C)n1nnc2ccc3cnc(N[C@H]4CC[C@H](N5CCN(C(=O)c6ccccc6)CC5)CC4)nc3c21 = 1.34

###

system: CDK2/Cyclin A2 (Homo sapiens (Human), UniProt P24941)
experiment.notes: Kinase activity assay (Caliper Mobility Shift Assay), CDK2/Cyclin A2
Format: biochemical
Parameter: log10(IC50). Scope: all listed entries.
readout.name: log10(IC50) (log10 of the value in nM)

* CC(C)n1nnc2ccc3cnc(NC4CCN(C)CC4)nc3c21 | 2.04
* CC(C)c1noc2c1-c1nc(NC3CCN(S(C)(=O)=O)CC3)ncc1CC2 | 0.30
* CC(C)n1nnc2ccc3cnc(N[C@H]4CC[C@H](N5CCN(C6CCCC6)CC5)CC4)nc3c21 | 2.67
* COCCN[C@H]1CC[C@H](Nc2ncc3ccc4nnn(C(C)C)c4c3n2)CC1 | 1.30
* CC(C)n1nnc2ccc3cnc(N[C@H]4CC[C@H](Nc5ncccn5)CC4)nc3c21 | 2.15
* CC(C)n1nnc2ccc3cnc(N[C@H]4CC[C@H](N5CCN(C(=O)c6ccccc6)CC5)CC4)nc3c21 | 2.53
* CC(C)n1nnc2ccc3cnc(N[C@H]4CC[C@H](NC5CCOCC5)CC4)nc3c21 | 1.30
* CC(C)c1noc2c(C(F)F)cc3cnc(NC4CCN(S(C)(=O)=O)CC4)nc3c12 | 0.70
* CC(C)n1nnc2c(F)cc3cnc(NC4CCN(S(C)(=O)=O)CC4)nc3c21 | -0.70
* CC(C)c1noc2c(Br)cc3cnc(NC4CCN(S(C)(=O)=O)CC4)nc3c12 | 0.95
* CC(C)n1nnc2ccc3cnc(NC4CCN(S(=O)(=O)C5CC5)CC4)nc3c21 | -0.70
* CC(C)n1nnc2c(CC(F)(F)F)cc3cnc(NC4CCN(S(C)(=O)=O)CC4)nc3c21 | -0.70
* CC(C)n1nnc2c1-c1nc(NC3CCN(S(C)(=O)=O)CC3)ncc1CC2 | -0.30
* CC(C)n1nnc2c(C(F)F)cc3cnc(NC4CCN(S(=O)(=O)C5CC5)CC4)nc3c21 | -0.70
* CC(C)n1nnc2ccc3cnc(NC4CCN(S(=O)(=O)CC5CC5)CC4)nc3c21 | 0.00
* [2H]c1cc2cnc(NC3CCN(S(C)(=O)=O)CC3)nc2c2c1nnn2C(C)C | -0.70
* C[C@@]1(O)CCC[C@H]1c1noc2ccc3cnc(NC4CCN(S(C)(=O)=O)CC4)nc3c12 | 0.00
* CC(C)n1nnc2cc(F)c3cnc(NC4CCN(S(C)(=O)=O)CC4)nc3c21 | -0.70
* Cc1cc2cnc(NC3CCN(S(C)(=O)=O)CC3)nc2c2c1nnn2C(C)C | -0.40
* CCS(=O)(=O)N1CCC(Nc2ncc3cc(C(F)F)c4nnn(C(C)C)c4c3n2)CC1 | -0.70
* C[C@@]1(O)CCC[C@H]1c1noc2c(C(F)F)cc3cnc(NC4CCN(S(C)(=O)=O)CC4)nc3c12 | 0.30
* CC(C)c1noc2ccc3cnc(NC4CCN(S(C)(=O)=O)CC4)nc3c12 | 0.00
* CCS(=O)(=O)N1CCC(Nc2ncc3ccc4nnn(C(C)C)c4c3n2)CC1 | -0.52
* CC(C)n1nnc2c(C(F)F)cc3cnc(NC4CCN(S(=O)(=O)C(F)F)CC4)nc3c21 | -0.52
* C[C@@]1(O)CCC[C@H]1n1nnc2ccc3cnc(NC4CCN(S(C)(=O)=O)CC4)nc3c21 | -0.70
* COCCS(=O)(=O)N1CCC(Nc2ncc3ccc4nnn(C(C)C)c4c3n2)CC1 | 0.00
* CC(C)n1nnc2ccc3cnc(N[C@H]4CC[C@H](NC5CCNCC5)CC4)nc3c21 | 1.08
* CC(C)n1nnc2ccc3cnc(NC4CCN(S(=O)(=O)C(F)F)CC4)nc3c21 | -0.40
